experiment: ATG_ERE_CIS: Attagene CIS-FACTORIAL HepG2 Assay for Estrogen Response Element (ERE) (AID 2282940); conditions: HepG2 ERE cis-reporter, Attagene RNA transcript; actives raise or lower the signal
Activity calls are given as the source filed them. The calls were made as follows: active = hit-call score of the fitted dose curve at least 0.9, where 1 is the maximum; inactive = score below 0.9.
Bench note: report the call from active, inactive

Worked cases, answers included:
compound	assigned.label
Nc1ccc(S(=O)(=O)Nc2nccs2)cc1	inactive
CCC(=O)OCCc1ccccc1	inactive
COC(=O)CCC(F)(F)C(F)(F)C(F)(F)C(F)(F)F	active
Cc1cccc(N(C)C)c1	inactive
OCCCC(F)(F)C(F)(F)C(F)(F)F	inactive
OCC(F)(F)C(F)(F)C(F)(F)C(F)F	inactive
O=C(OCCOCCOCCOC(=O)c1ccccc1)c1ccccc1	active
CCN(CC)c1ccc2c(C)cc(=O)oc2c1	inactive

Request: Which outcome did this test record for the compound FC(F)(F)C(F)(F)C(F)(F)C(F)(F)C(F)(F)CCI ?
Result: active

Request: In this assay, the call recorded for CCN(Cc1cccc(S(=O)(=O)O)c1)c1ccc(C(=C2C=CC(=[N+](CC)Cc3cccc(S(=O)(=O)O)c3)C=C2)c2ccc(O)cc2S(=O)(=O)[O-])cc1 was what?
Result: active

Request: Which outcome did this test record for the compound CCCCCCC(C)OC(=O)CCCCC(=O)OC(C)CCCCCC (configuration not stated) ?
Result: inactive

Request: Given C(=C(c1ccccc1)c1ccccc1)c1ccccc1 , state the outcome it received in this test.
Result: active

----------
experiment: ATG_M_06_TRANS: Attagene TRANS-FACTORIAL HepG2 Assay for M06 Transcription Factor (Internal Marker) (AID 2282983); details: HepG2 Attagene TRANS M06 internal marker reporter
Inconclusive results are not listed. Active and inactive are the calls of the source. The calls were made as follows: active = hit-call score of the fitted dose curve at least 0.9, where 1 is the maximum; inconclusive = response in the unintended direction; inactive = score below 0.9.
Parameter call: string, one of active, inactive

Example entries and their recorded answers appear below.
molecule	assigned.label
Cc1ccc(S(=O)(=O)OCC(F)(F)C(F)(F)C(F)(F)C(F)(F)C(F)(F)C(F)F)cc1	inactive
OCC(F)(F)C(F)(F)C(F)(F)F	inactive
COC(=O)CCC(F)(F)C(F)(F)C(F)(F)C(F)(F)F	inactive
CCCCCCOC(=O)c1ccccc1	inactive
OC[C@@H](O)[C@@H](O)[C@H](O)[C@@H](O)CO	inactive
FC(F)(F)C(F)(F)C(F)(F)C(F)(F)C(F)(F)C(F)(F)C(F)(F)Br	inactive
CCO[Si](CCC(F)(F)C(F)(F)C(F)(F)C(F)(F)C(F)(F)C(F)(F)F)(OCC)OCC	inactive
OCCCC(F)(F)C(F)(F)C(F)(F)C(F)(F)C(F)(F)C(F)(F)C(F)(F)F	active

Request: Which result was noted for this molecule in the test: O=C(O)C(F)(F)C(F)(F)F
Result: inactive

Request: Just curious, what result did CCCCOCCOCCOC(=O)CCCCC(=O)OCCOCCOCCCC get here?
Result: inactive

Request: Assay outcome for CCCCCC=O : what was it?
Result: inactive

Request: Which outcome was assigned to O[Si](c1ccccc1)(c1ccccc1)c1ccccc1 in this test?
Result: inactive

Request: Which outcome did this test record for the molecule CNC(=S)NC ?
Result: inactive

Request: In this assay, the call recorded for C=CC(=O)OCC(F)(F)C(F)(F)C(F)(F)C(F)(F)COC(=O)C=C was what?
Result: inactive

Request: Hi team, can someone confirm the assay call for CCc1ccc(C(c2ccc(CC)cc2)C(Cl)Cl)cc1 ?
Result: inactive

Request: Query: recorded result category for CC(C)(C)C(=O)CC(=O)C(F)(F)C(F)(F)C(F)(F)F in this test
Result: inactive

Request: // return assay outcome for O=C(O)C(F)(F)C(F)(F)C(F)(F)C(F)(F)C(F)(F)C(F)(F)C(F)(F)C(F)(F)C(F)(F)C(F)(F)C(F)(F)C(F)(F)F
Result: inactive

Request: Please indicate how the test categorized FC(F)(F)C(F)(F)C(F)(F)C(F)(F)C(F)(F)C(F)(F)CCS .
Result: inactive

Request: Hi, do you know how CN(C)Cc1ccccc1O came out in this test?
Result: inactive

Request: Just curious, what result did OCC(F)(F)C(F)(F)C(F)(F)C(F)F get here?
Result: inactive

Request: // param item: C=C(C)C(=O)OCCC(F)(F)C(F)(F)C(F)(F)C(F)(F)C(F)(C(F)(F)F)C(F)(F)F ; yields the recorded call
Result: inactive

Request: Please let me know the test result on file for CC(C)=CCCC(C)CCOC(=O)C(C)C (configuration not stated) .
Result: inactive

Request: Name the outcome recorded for O=S(=O)(O)c1ccc2ccccc2c1 in the assay.
Result: inactive

Request: Could you check what this test reported for CCCCCCS ?
Result: inactive

Request: Test call for this molecule, please: O=C(OCCOCCOCCOC(=O)c1ccccc1)c1ccccc1
Result: inactive

Request: I'd appreciate the recorded outcome for Nc1ccc([N+](=O)[O-])cc1O from this test.
Result: inactive

Request: Field: outcome | Entry: CCCCCCOC(=O)c1ccccc1O
Result: inactive

Request: # fetch the recorded call for CC(=O)Nc1ccc(N=Nc2cc(C)ccc2O)cc1 here
Result: inactive
